Source of measurements: patent US20240228562A1

ASSAYED TARGET: T1, CTGF (Homo sapiens, UniProt P29279)
T1 sequence (P29279 27-349): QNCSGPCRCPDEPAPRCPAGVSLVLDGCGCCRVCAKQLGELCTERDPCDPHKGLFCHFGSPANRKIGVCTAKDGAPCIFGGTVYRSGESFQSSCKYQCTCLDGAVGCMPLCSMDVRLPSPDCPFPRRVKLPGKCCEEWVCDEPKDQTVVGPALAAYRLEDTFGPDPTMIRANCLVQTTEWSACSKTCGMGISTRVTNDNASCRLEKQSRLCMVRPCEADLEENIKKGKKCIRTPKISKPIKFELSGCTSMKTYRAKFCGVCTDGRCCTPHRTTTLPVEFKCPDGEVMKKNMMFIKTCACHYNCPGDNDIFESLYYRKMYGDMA
ASSAY DETAILS: Specificity ELISA (CCN proteins), human CTGF
Format: binding
RUN CONDITIONS: coated 1 μg/ml, muteins from 1000 nM

| MOLECULE | ELISA binding to HUMAN CTGF |
| --- | --- |
| SEQ ID NO: 23: optimized CTGF-binding hNGAL lipocalin mutein (protein, lipocalin mutein) QDSTSDLIPAPPLSKVPLQQNFQDNQFQGKWYVVGVAGNAILRPDKQPAKMFATIYELKEDKSYDVTSVRFEAKSCKYTIKTFVPGSQPGEFTSGQIKSAPGQTSTLVRVVSTNYNQHAMVFFKHVSQNREIFVITLYGRTKELTSELKENFIRFSKSLGLPENHIVFPVPIDQCIDG | Binding |
| SEQ ID NO: 15: optimized CTGF-binding hNGAL lipocalin mutein (protein, lipocalin mutein) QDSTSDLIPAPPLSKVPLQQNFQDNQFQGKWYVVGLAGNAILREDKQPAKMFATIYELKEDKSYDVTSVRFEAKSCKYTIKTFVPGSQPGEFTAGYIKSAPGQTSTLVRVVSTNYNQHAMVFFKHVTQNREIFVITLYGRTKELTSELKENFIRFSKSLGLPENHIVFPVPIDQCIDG | Binding |
